IC50 nM, Mean (SBE-bla HEK 293T cell sensor assay, h2) listing for selected binders.
Measured on: human TGF-βRII on cells (SBE-bla HEK 293T cells; A549 cells) (human, UniProt P37173 23-567)
Sequence (P37173 23-567): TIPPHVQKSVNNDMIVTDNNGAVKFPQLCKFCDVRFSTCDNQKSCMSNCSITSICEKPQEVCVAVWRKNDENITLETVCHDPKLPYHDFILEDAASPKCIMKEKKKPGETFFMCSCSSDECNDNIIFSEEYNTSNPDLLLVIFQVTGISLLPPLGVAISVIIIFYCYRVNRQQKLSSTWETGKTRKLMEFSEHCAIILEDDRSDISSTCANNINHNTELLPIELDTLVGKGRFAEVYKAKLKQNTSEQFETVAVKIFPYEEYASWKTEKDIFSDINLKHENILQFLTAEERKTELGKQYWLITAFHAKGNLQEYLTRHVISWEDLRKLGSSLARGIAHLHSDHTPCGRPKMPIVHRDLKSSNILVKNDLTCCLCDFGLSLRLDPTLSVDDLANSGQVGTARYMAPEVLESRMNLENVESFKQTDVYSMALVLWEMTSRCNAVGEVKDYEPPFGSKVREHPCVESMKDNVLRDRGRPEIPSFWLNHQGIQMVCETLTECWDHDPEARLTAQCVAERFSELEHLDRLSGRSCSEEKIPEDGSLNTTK
Assay: cell-based or functional assay
Give the value in nM but do not write nM after it.

The reported IC50 nM, Mean (SBE-bla HEK 293T cell sensor assay, h2) of the binder DOM23h-828 (VHH, not shown: small tags and cut ends) VHH: EVQLLESGGGLVQPGGSLRLSCAASGFTFMSYRMWWVRQAPGKGLEWVSAISPSGSDTYYADSVKGRFTISRDNSKNTLYLQMNSLRAEDTAVYYCAKQVVEYSRTHKGVFDYWGQGTLVTVSS was 9900

The reported IC50 nM, Mean (SBE-bla HEK 293T cell sensor assay, h2) of the binder DOM23h-815 (VHH, not shown: small tags and cut ends) VHH: EVQLLESGGGLVQPGGSLRLSCAASGFTFAEDRMWWVRQAPGKGLEWVSAIDPQGQHTYYADSVKGRFTISRDNSKNTLYLQMNSLRAEDTAVYYCAKQSTGSATSDYWGQGTLVTVSS was 7120

The reported IC50 nM, Mean (SBE-bla HEK 293T cell sensor assay, h2) of the binder DOM23h-883 (VHH, not shown: small tags and cut ends) VHH: EVQLLESGGGLVQPGGSLRLSCAASGFTFVNYRMWWVRQAPGKGLEWVSAISGSGDKTYYADSVKGRFTISRDNSKNTLYLQMNSLRAEDTAVYYCAKHGLSFDYWGQGTLVTVSS was 10100

--- query ---
The reported IC50 nM, Mean (SBE-bla HEK 293T cell sensor assay, h2) of the binder DOM23h-865 (VHH, not shown: small tags and cut ends) VHH: EVQLLESGGGLVQPGGSLRLSCAASGFTFRSYEMTWVRQAPGKGLEWVSKIDPSGRFTYYADSVKGRFTISRDNSKNTLYLQMNSLRAEDTAVYYCAKGRTDLQLFDYWGQGTLVTVSS was 5560

The reported measurements were obtained from patent US20150361176A1.
